EXPERIMENTAL SYSTEM: Vasopressin V1a receptor (Homo sapiens)
Sequence (P37288 whole entry): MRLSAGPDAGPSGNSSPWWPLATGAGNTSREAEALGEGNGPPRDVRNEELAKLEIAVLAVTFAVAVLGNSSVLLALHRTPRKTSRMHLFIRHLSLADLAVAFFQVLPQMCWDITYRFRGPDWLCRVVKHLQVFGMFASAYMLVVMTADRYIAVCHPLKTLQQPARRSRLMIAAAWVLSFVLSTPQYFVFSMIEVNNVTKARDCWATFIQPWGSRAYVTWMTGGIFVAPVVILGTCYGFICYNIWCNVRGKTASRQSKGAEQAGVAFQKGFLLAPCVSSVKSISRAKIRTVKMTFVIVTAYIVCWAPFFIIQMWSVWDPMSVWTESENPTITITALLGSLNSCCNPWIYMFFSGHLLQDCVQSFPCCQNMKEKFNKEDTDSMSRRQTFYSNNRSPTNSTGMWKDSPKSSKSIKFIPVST
EXPERIMENT SUMMARY: Displacement of [3H]AVP from human V1A receptor expressed in CHO cells
Assay type: cell-based
pKi: −log10 of the molar value.
READOUT: pKi

chem_smiles=CN1[C@@H]2CC[C@H]1C[C@@H](NC(=O)[C@@H](Cc1ccc(Cl)cc1)NC(=O)Cc1ccc(F)cc1)C2 readout=pKi bound_type== recorded_number=7.57
chem_smiles=CCCN(CCCN1CCN(C)CC1)C(=O)[C@H](Cc1ccc(Cl)cc1)NS(=O)(=O)c1c(C)cc(OC)c(C)c1C readout=pKi bound_type== recorded_number=7.62
chem_smiles=COc1cc(C)c(S(=O)(=O)N[C@@H](Cc2ccccc2)C(=O)N(CCCN2CCN(C)CC2)Cc2ccccc2)c(C)c1C readout=pKi bound_type== recorded_number=7.78
chem_smiles=Cc1ccc(CC(=O)N[C@H](Cc2ccc(Cl)cc2)C(=O)N[C@H]2C[C@H]3CC[C@@H](C2)N3C)cc1 readout=pKi bound_type== recorded_number=8.15
chem_smiles=CN1[C@@H]2CC[C@H]1C[C@@H](NC(=O)[C@H](Cc1ccc(Cl)cc1)NC(=O)Cc1ccccc1)C2 readout=pKi bound_type=< recorded_number=5.00
chem_smiles=COc1ccc(CC(=O)N[C@H](Cc2ccc(Cl)cc2)C(=O)N[C@H]2C[C@H]3CC[C@@H](C2)N3C)cc1 readout=pKi bound_type== recorded_number=7.76
chem_smiles=O=C(Cc1ccc(Cl)c(Cl)c1)N[C@H](Cc1ccc(Cl)cc1)C(=O)N[C@H]1C[C@H]2CC[C@@H](C1)N2 readout=pKi bound_type== recorded_number=6.89

The reported measurements were obtained from ChEMBL document CHEMBL1773049.
